Where these numbers come from: the nanobody polyreactivity screen of Harvey et al. (2022)

assay: yeast display, Sf9 membrane polyspecificity reagent, FACS + sequencing; frameworks hold sequencing errors
measurementKind: polyreactivity (PSR sort gate)

- residueString: "QVQLVESGGGLVQAGGSLRLSCAASVIIYHYYAMGWYRPAPGKERELVAAIDSGGSTYYADSVKGRFTISRDNAKNTVYLQMNSLKPEDTADYYCNAGPSVTSGYDYDYWGHGTQVTVSS"
  obsValue: "low polyreactivity"
- residueString: "QVQLVESGGGLVHAGGSLRLSCAASGRTFRDNVMGWSRQAPGKERELVAAISRSGGSTYYADSVKGRFTISRDNAKHTVYLQMNSQKPEDTAVYYSNAPYYVRSQYTFDYWGQGTQVTVSS"
  obsValue: "high polyreactivity"
- residueString: "QVQLVESGGGLVQAGGSLRLSCAASGSTFYYYAMGWYRQAPGKERELVAAISRGGSTYYADSVKGRFTISRDNAKNTVYLQMNSLKPEDTAVYYCAVDARPYRQIYLYEYWGQGTQVTVSS"
  obsValue: "low polyreactivity"
- residueString: "QVQLVESGGGLVQAGGSLRIISAASGSTFRWYDMGWYRQAPGKEMELVAAITGSGGATYYADSVKGRFTIARDYAKNTVYLQKNRLKPEDTAVYYCAAVWWVPLAYDDYDYWGQGTQVTVSS"
  obsValue: "high polyreactivity"
- residueString: "QVQLVESGGGLVQAGGSLRLSCAASGSTFTRNAMGWYRQAPGKERELVAVISSRGGRTYYADSVKGRFTISRDNAKNTVYLQMNSLKPEDTAVYYCAARYVIPLGNSYDYWGQGTQVTVSS"
  obsValue: "high polyreactivity"
- residueString: "QVQLVESGGGLVQAGGSLRLSCAASGFIFTRYAMGWYRQAPGKERELVAGINRSGSRTYYADSVKGRFKISRDNAKNTVYLQMNSLKPEDTAVYYCATDTWYLYSTLDYWGQGTQVTVSS"
  obsValue: "high polyreactivity"
- residueString: "QVQLVESGGGLVQAGGSLRLSCAASGRIFYVYAMGWYRQAPGKERELVATISWSAGITYYADSVKGRFTISRDNAKNTVYLQMNSMKPEDTAVYYCAKVGRYTYSGQYDYWGQGTQVTVSS"
  obsValue: "high polyreactivity"
- residueString: "QVQLVESGGGLVQAGGSLRLSCAASGRTLPSYAMGWYRQAPGKERELVAAITGSGGRTYYADSVKGRFTISRDNAKNTVYLQMNSLKPEDTAVYYCAARQDDYGKINYYWGQGTQVTVSS"
  obsValue: "high polyreactivity"

GET /value?item= "QVQLVESGGCLVQAGGSLRLSCAASGRSFRLYAMGGYRQAPGKERELVAAITRGGRTNYADSVKGRFTISRDNAKNTVYLQMNSLKPEDTAVYYCAARYVERHTDYYYWGQGTQVTVSS" &field=polyreactivity (PSR sort gate) returns low polyreactivity

// "QVQLVESVGGLVQAGGSLRLSCAASGSTFYENTMGWYRQAPGKERELVAAISRSGVSTYYADSVKGRFTISRDNAKNTVYLQMNSLKPQDTAVYYCAAIVYRRYDYWGQGTQVTVSS" : polyreactivity (PSR sort gate) value = high polyreactivity

polyreactivity (PSR sort gate) measured on "QVQLVESGGGLVQAGGSLRLSCAASGSIFRFYAMGWYRQAPWKERELVAGITWSGASTYYADSVKGRFTISRDNAKNTVYLQMNSLKPEDNAVYYCAAKSLIVRYDSWGQGTQVTVSS" = high polyreactivity

// field: polyreactivity (PSR sort gate); key: "QVQLVESGGGLVQAGGSLRLSCAASGSTFLYYAMGWYRQAPGKERELVASITRRGGRTYYADSVKGRFTISRDNAKNTVYLQMNSLKPVDTAVYYCNAVYGRQYRGYNYKFFYWGQGTQVTVSS" ; value = high polyreactivity

Looking up "QVQLVESGGGLVQAGGSLRLSCAASGFIFVHNAMGWYRQAPGKERELVAAITSRGRTYYADSVKGRFTISRDNAKNTVYLQMNSLKPEDTAVYYCNAYWRGEYRYDSWGQGTQVTVSS" , I found its polyreactivity (PSR sort gate) recorded as high polyreactivity

For record "QVQLVESGGGLVQAGGSLRLSCAASGSTFYPYDMGWYRQAPGKERELVATMTSTGGSTNYADSVKGRFTISRDNAKNTVYLQMNSLKPEDTAVYYCAKDWNDDQHSWDTPFDYWGQGTQVTVSS" the listed polyreactivity (PSR sort gate) is low polyreactivity

----------
assay: yeast display, Sf9 membrane polyspecificity reagent, FACS + sequencing; frameworks hold sequencing errors

- residueString: "QVQLQESGCGLVQAGGSLRLSCAASGDIIEADDMGWYRQAPGKERELVASITDGGSTNCADSMKGRSTICRDNAKITVYLQMNSLKLEDTAVYYCAAIAYPDVPTYFDYDSDYFYWGQGTLVTVSS"
  polyreactivity (PSR sort gate): "high polyreactivity"
- residueString: "QVQLVESGGGLVQAGGSLRLSCAASGSIFASNAMGWYRQAPGKERELVAAINSGGNTYEDSVKGRFTISRDNAKNTVYLQMNSLKPEDTAVYYCSVVWNWWSGLSPGYPDFDYWGQGTQVTVSS"
  polyreactivity (PSR sort gate): "low polyreactivity"
- residueString: "QVQLVESGGGLVQAGGSLRLSCAASGSTFVFYTMGWYRQAPGKEREFVASISGSGGSTYYADSVKGRFTISRDNAKNTVYLQMNSLKPEDTAVYYCGAGYPYYYWTPYYYWGQGTQVTVSS"
  polyreactivity (PSR sort gate): "high polyreactivity"
- residueString: "QVQLVESGGGLVQAGGSLRISCAASGITFFRNAMGWYRQAPGKERELVATITKSGGSTYYADSVKGRFTISRDNAKNTVYLQMNSLKPEDTAVYDCAAVRRYPVKYVAYDYWGQGTQVTVSS"
  polyreactivity (PSR sort gate): "low polyreactivity"

----------
assay: yeast display, Sf9 membrane polyspecificity reagent, FACS + sequencing; frameworks hold sequencing errors
measurementKind: polyreactivity (PSR sort gate)

Some solved entries appear below for comparison.
- residueString: "QVQLVESGGGLVQAGGSLRLSCAASGFIILIYAMGWYRQAPGKERELVATIRYSGGRTYYADSVKGRFTISRDNAKNTVFLQMNSLKPEDTAVDYCAADGYPTLYDYWGQGTQVTVSS"
  obsValue: "high polyreactivity"
- residueString: "QVQLVDSGGGLVQAGGSLRLSCAASGYTFVPYAMGWYRQAPGKERELVAAISSSGGDTYYADSVKGRFTISRDNAKTTVYLQLNSLKPEDTAVYYCNTGVYVWQYWYYGFDYWGQGTQVTVSS"
  obsValue: "low polyreactivity"
- residueString: "QVQLVESGGCLVQAGGSLRLSCAASGRTFLANAMGWYRQAPGKERELVAAITWSGGRTNYADSVKGRFTISRDNAKNTVYLQMNSLKPEDTAVYYCAADIFYEQVVGGTDVGYHDFDYWGQGTQVTVSS"
  obsValue: "low polyreactivity"
- residueString: "QVQLVESGGGLVQAGGSLRLSCAASGSIFDPYAMGWYRQAPRKERELVAAIRWSGTSTYYADSVMGRFTISRDNAKNTVYLQMNSLKPEDTAVYYCAARGSKGFSSPFGYWGQGTQLTVSS"
  obsValue: "high polyreactivity"
- residueString: "QVQLVESGGGLVQAGGSLRLSCAASGFIFWLYAMGWSRQAPGKERELVASINWSGGDTYYADSVKGRFTISRDKAKNTVYLQMNSLKPEDTAVYYCAARYWSIYDYWGQGTQVTVSS"
  obsValue: "low polyreactivity"

Per the record, "QVQLVESGGGLVQAGGSLRLSCAASGITFTSYAMGWYRQAPGKERELVAAISWSGDRTYYADSVKGRFTISRDNAKNTVYLQMNSLKPEDTAVYYCAAEWVSPWTGPGFDYWGQGTQVTVSS" has polyreactivity (PSR sort gate) of high polyreactivity

Noted for "QVQLVESGGGLVQAGGSLRLSCAASGNIIIPYAMGWYRQAPGNEREFVAVMSTRGGSTYYADSVKGRFTISRDNAQNTVYLQMNSLKPEDTAVYYCAARYPYRYDYWGQGTQVTVSS" : its polyreactivity (PSR sort gate) reads high polyreactivity

Per the record, "QVQLQESGGGLVQAGGSLRMSCASSGTIFRISDMGSYRQAPGKDSEFVAAITYGANTYYADSGKGRFTISRDNAKNTVYLQMNSLKPEDTAVYYCAVPPVKETILDYWGQGTQVTVSS" has polyreactivity (PSR sort gate) of low polyreactivity

Measured polyreactivity (PSR sort gate), "QVQLEESGGGLVQAGGSLRLSCAASGSTFGFYAMRWYRQAPGKERDLVAAISSAARTYYADSVKGRFTISRDNAKNTVYLQMNSLKPADTAVYYCSAEAYHWTSYIGYGGVYYWGQGTQVTGSS" : low polyreactivity

----------
assay: yeast display, Sf9 membrane polyspecificity reagent, FACS + sequencing; frameworks hold sequencing errors
measurementKind: polyreactivity (PSR sort gate)

Below: 5 sequences and their reported polyreactivity (PSR sort gate).
- residueString: "QVQLVETGGGLVQAGGSLRLSCAASGITFPYYAMGWYRQAPGKERELVDAITIRSGRTYYADSVKGRFTISRDNAKNTFYLQMNSLIPEDTAVYYCAARLSNTYGYWGQGTQVTVSS"
  polyreactivity (PSR sort gate): "high polyreactivity"
- residueString: "QVQLVESGGGLVQAGGRLRLSCAASGFTIRWYTMGWYRQAPGKERELVAAISRGGSTNYADSVKGRFTISRDNAKNTVYLQMNSLKPEDTAVYYCAATVYAFTYPYDYWGQGTQVTVSS"
  polyreactivity (PSR sort gate): "high polyreactivity"
- residueString: "QVQLGESGGGLVQAGGSLRLICAASGSIFDVNAMGWYRQAPGKERELVAAISDSGGSTYYADSVKGRFTISRDNAKNTVYLQMNSLKPEDTAVYYCNADWSWYNYDDFDYWGQGTQVTVSS"
  polyreactivity (PSR sort gate): "low polyreactivity"
- residueString: "QVQLVESGGGLVQARGSLRLSCAPSGSIFDHNAMGWYRQAPGKESEFVAAISSSGGSTNYADSVKGRFTISRDIAKNTVYLQMNSLKPEDTAVYYCAAYPDRYVELGYWGQGTQVTVSS"
  polyreactivity (PSR sort gate): "low polyreactivity"
- residueString: "QVQLVESGGGLVQAGGSLRLSCAASGRIFIGYAMGWYRQAPGKERELVAAITSGGRTYYADSVKGRFTISRDNAKNTVYLQMNSLKPEDTAVYYCYRAAFRYRYDYWGQGTQVTVSS"
  polyreactivity (PSR sort gate): "high polyreactivity"

Consider now this further sequence.
Record summary for "QVQLVESGGGLVQAGGSLRLSCAASGITFPLYAMGWYRQAPGKERELVATISGRGGSTYYADSVKGRFTISRDNAKNTVYLQMNSLKPEDTEVYYCNADFRSPYFLLSWYHSGDYWGQGTQVTVSS" : reported polyreactivity (PSR sort gate) = low polyreactivity
